- TARGET OF ASSAY: T1, recombinant OX40 protein with a His tag (Cat: 10481-H08H, Sino Biological) (UniProt P43489 29-216)
- T1 construct: Bought protein; also called OX40-His (bought); not shown: His tag
- T1 sequence (looked up): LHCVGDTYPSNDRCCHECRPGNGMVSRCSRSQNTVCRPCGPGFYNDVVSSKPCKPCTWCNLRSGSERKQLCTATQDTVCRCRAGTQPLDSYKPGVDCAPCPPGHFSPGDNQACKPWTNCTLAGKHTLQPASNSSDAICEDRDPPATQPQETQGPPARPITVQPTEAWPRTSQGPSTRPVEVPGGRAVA
- ASSAY OVERVIEW: SPR, BIAcore T-200; antibody captured by anti-human IgG, OX40-His flowed; Mean
EXPERIMENTAL READOUT: Kd (nM)
Reply with just the number (in nM).

Short answer for 445-1 (antibody, V domains shown) VH: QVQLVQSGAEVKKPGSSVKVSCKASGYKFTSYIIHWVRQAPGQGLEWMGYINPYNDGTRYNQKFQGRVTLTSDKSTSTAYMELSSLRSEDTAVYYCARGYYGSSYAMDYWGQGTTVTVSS VL: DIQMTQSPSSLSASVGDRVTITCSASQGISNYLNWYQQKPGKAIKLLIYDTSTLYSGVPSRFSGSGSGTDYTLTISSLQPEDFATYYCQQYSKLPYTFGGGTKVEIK : Kd was 17.1
